# measured_on: P2X purinoceptor 7 (Homo sapiens, UniProt Q99572)
# Sequence (Q99572 whole entry): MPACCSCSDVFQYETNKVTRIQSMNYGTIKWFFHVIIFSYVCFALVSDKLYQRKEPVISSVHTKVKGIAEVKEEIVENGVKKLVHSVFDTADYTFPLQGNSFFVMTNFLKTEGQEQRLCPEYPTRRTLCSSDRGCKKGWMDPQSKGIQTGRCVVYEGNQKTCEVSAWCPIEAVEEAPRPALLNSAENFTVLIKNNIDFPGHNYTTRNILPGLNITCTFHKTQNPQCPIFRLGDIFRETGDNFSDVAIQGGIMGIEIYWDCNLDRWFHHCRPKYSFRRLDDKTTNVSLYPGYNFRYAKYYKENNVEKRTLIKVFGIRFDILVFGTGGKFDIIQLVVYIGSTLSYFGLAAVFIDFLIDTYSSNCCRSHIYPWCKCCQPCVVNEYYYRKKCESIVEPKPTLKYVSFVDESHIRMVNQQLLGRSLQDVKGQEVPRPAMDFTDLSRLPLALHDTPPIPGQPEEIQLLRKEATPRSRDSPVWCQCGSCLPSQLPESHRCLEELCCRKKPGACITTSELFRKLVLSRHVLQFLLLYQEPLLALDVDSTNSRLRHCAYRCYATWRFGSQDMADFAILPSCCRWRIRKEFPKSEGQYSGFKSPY
# protocol_summary: Maximum binding affinity towards P2X purinoceptor 7 expressed in HEK 293 cells
# Type: cell-based, HEK293
parameter_measured: pKd
As a rule, pKd stands for the negative log10 of the concentration, concentration in M.

q: # lookup: pKd of Cc1ccccc1N1CCN(C(=O)[C@H](Cc2ccc(OS(=O)(=O)c3cccc4cnccc34)cc2)N(C)S(=O)(=O)c2cccc3cnccc23)CC1
a: 8.45

###

# measured_on: P2X purinoceptor 7 (Homo sapiens, UniProt Q99572)
# protocol_summary: Equilibrium constant for P2X purinoceptor 7 expressed in HEK 293 cells at 1 uM
# Type: cell-based, HEK293
parameter_measured: pKd
As a rule, pKd stands for the negative log10 of the concentration, concentration in M.

q: # lookup: pKd of Cc1ccccc1N1CCN(C(=O)[C@H](Cc2ccc(OS(=O)(=O)c3cccc4cnccc34)cc2)N(C)S(=O)(=O)c2cccc3cnccc23)CC1
a: 8.45
